# System: U251 CNS
Parameter call: string, one of YES = active, NO = inactive

CCCCC#Cc1c(I)n(C)c(=O)[nH]c1=O = NO
C#Cc1cccc(Nc2nc(Cl)nc3cc(NC(=O)CCl)ccc23)c1 = NO
COc1cc(OC)cc(C2C3=C(COC3=O)Nc3cc(OC)ccc32)c1 (centres undefined) = YES
Cc1cc(N(CCOS(C)(=O)=O)CCOS(C)(=O)=O)ccc1C(=O)O = NO

Given `Cc1ccc(N=C[N-]c2ccc(C)cc2)cc1.Cc1ccc(N=C[N-]c2ccc(C)cc2)cc1.O=C([O-])C(F)(F)F.O=C([O-])C(F)(F)F.[OH3+].[OH3+].[Rh+2].[Rh+2]` , state the outcome it received in this test.
NO

Tell me the assay call for `CN(C)CCCn1c(=O)c2ccccc2c2cnc3[nH]ccc3c21` please.
NO

Hi, sorry to bother you, what did the test record for `CNCCCNc1nc2ccccc2c2c(=O)c3cc(OC)ccc3sc12` ?
NO

Dear all, I need the recorded test outcome for `COc1cccc2cc(N(C)c3nc(C)nc4c3CCC4)ccc12` , thank you.
YES

// param item: COc1ccccc1S(=O)(=O)Nc1ccc2c3c(cc(CCC(=O)NCCCCNc4cccc5c4C(=O)N(C4CCC(=O)NC4=O)C5=O)cc13)C(=O)N2C (centres undefined) ; yields the recorded call
NO

====

# Tested on: UACC-62 melanoma
# protocol-description: NCI tumour cell line growth inhibition, 48 h
property-measured: TGI

Check out these entries, answers already filled in.
O=C(NCCCc1cn[nH]c1)c1ccc(-c2ccncc2)c(C#Cc2ccc(F)cc2)c1 = > 70.1 µM
CCCCCCCCCCCCC(O)c1ccco1 (stereo unspecified) = 32.4 µM

Report TGI for COC1=CC(C2c3cc4c(cc3[C@@H](Nc3ccc(F)cc3)C3COC(=O)[C@H]23)OCO4)=CC(=O)C1=O (stereo partly specified) please.
20.7 µM

Suppose we examine the compound CC(=O)OCC1OC(n2c(C)c(C)c(C)c(C#N)c2=S)C(OC(C)=O)C(OC(C)=O)C1OC(C)=O (stereo unspecified) ; what TGI value has been reported?
> 100 µM

If you can, please state the reported TGI value of CC1(C)Oc2ccc3c(=O)cc(-c4ccccc4)oc3c2C1C(=O)O (stereo unspecified) .
> 100 µM

# lookup: TGI of `O=C(O)/C=C\C(=O)Nn1c(Cc2ccc(Cl)cc2)n[nH]c1=O`
> 100 µM

For the compound `CCCCCCSSC(=S)N(CC)CC` , what TGI is on record?
36.9 µM

Reported TGI for `Cc1cc(S(=O)(=O)/N=C(/NN)Nc2ccc(Cl)cc2)c(S)cc1Cl` : what is it?
27.4 µM

What does the data say about its TGI? Entry: `COc1ccc(-c2cncn2-c2cc(OC)c(OC)c(OC)c2)cc1`
> 33.7 µM

Which TGI value belongs to `CCNc1cc2c3c(c1)CCN3CCC2` ?
> 10 µM

Look at this compound and give its reported TGI. `NC(=S)NC/C=C/Cl`
> 100 µM

====

# System: SK-MEL-2 melanoma
# protocol-description: NCI tumour cell line growth inhibition, 48 h
In this section, each of the molecules is paired with its reported TGI.
The answer is to be given in µM; state only the numeric part.

N#CC1=C(N)Oc2c(ccc3ccccc23)C1c1cc(=O)oc2ccc(Cl)cc12 (configuration not stated) = 44.7
NC1c2ccccc2Nc2ccccc21 = 29.8
CS(=O)(=O)OCCCNCCCOS(C)(=O)=O = 3690
CCCCCCSSC(=S)N(CC)CC = 58.7

Given the entry O=C1CSC(c2ccccc2Cl)N1c1nnc(Cn2cnnc2)o1 (configuration not stated) , what TGI was observed with SK-MEL-2 melanoma?
94.8

====

# Test system: HOP-18 NSCLC
# protocol-description: NCI tumour cell line growth inhibition, 48 h
property-measured: TGI

Solved entries:
Cc1ccc2nc(NC(=O)C(=O)C(C#N)c3ccc(Cl)cc3)sc2c1 (configuration not stated) = > 50 µM
NC1c2ccccc2Nc2ccccc21 = 39.7 µM
CCC[CH2][Sn]([CH2]CCC)([S]C#N)[S]C#N = 2.44 µM
Cc1cc(-c2c(F)cc3c4nn([C@H]5CC[C@@H](N(C)C)CC5)c(=O)c-4cn(C4CC4)c3c2F)cc(C)n1 = 0.919 µM

Form field - read-out: TGI; system: HOP-18 NSCLC; submitted item: N#Cc1ccccc1NC(=O)C(=O)C1NC(=S)NC1=O (configuration not stated)
> 100 µM

Find the measured TGI: item `COc1ccc2oc3c(OC)c(OC)c(OC)cc3c(=O)c2c1` , target or system HOP-18 NSCLC.
> 100 µM

====

# System: SF-295 CNS
# protocol-description: NCI tumour cell line growth inhibition, 48 h; in the data active = GI50 below about 0.43 µM; inactive = the rest
Use one of these outcomes when replying: true (active), false (inactive)

COc1ccccc1C1C(C#N)=C(N)Oc2n[nH]c(C)c21 (centres undefined) = false
CCCCC#Cc1c(I)n(C)c(=O)[nH]c1=O = false
CCCCCCCCCCCCC(O)c1ccco1 (centres undefined) = false
ClCc1ccccc1Cn1cnc2ncnc(Cl)c21 = false
O=C1/C(=C/c2ccc(F)cc2)CN(C(=O)CCN2CCC(=NO)CC2)C/C1=C\c1ccc(F)cc1 = false
CSc1nc2nc3c(nc2c(=O)n1C)C(=O)c1ccccc1C3=O = true
CS(=O)(=O)c1ccc(Nc2nc(N[C@H]3CCCC[C@H]3N)nc3cc[nH]c(=O)c23)cc1 = false
C#C[C@@]1(O)[C@@H](CO)O[C@@H](n2cc(I)c3c(N)ncnc32)[C@@H]1O = false

Given `Cc1c(C#N)cccc1[C@@H](C)Nc1nnc(C)c2cnc(N3CCOCC3)cc12` , state the outcome it received in this test.
false

====

# Tested on: A549 NSCLC
# protocol-description: NCI tumour cell line growth inhibition, 48 h
property-measured: GI50

See these solved cases before continuing.
O=C(Nc1ccccc1I(=O)=O)C1CCCCC1 = > 100 µM
O=C1CSC(c2ccccc2Cl)N1c1nnc(Cn2cnnc2)o1 (stereo not given) = 18 µM
O=C(NNc1ccc(Cl)cc1)C1CCC(CNS(=O)(=O)c2ccccc2Cl)CC1 (stereo not given) = 8.99 µM
COc1ccc(-c2nc(-c3nc4ccc(C)cc4[nH]3)cc3c2[nH]c2ccccc23)cc1 = 3.43 µM

Name the recorded GI50 for `[N-]=[N+]=NCCCn1c2c(c3ccc([N+](=O)[O-])cc3c1=O)C(=O)c1cc(Br)ccc1-2` .
> 100 µM

====

The compounds listed here are annotated with their TGI.
# System: MDA-MB-231 breast
# protocol-description: NCI tumour cell line growth inhibition, 48 h
Quick reminder: number only, in µM, skip the unit.

CN(C)CCCn1c(=O)c2ccccc2c2cnc3[nH]ccc3c21 = 8.83
Cc1cc(C)c(C#N)c(Sc2nc(C)c([N+](=O)[O-])c(C)c2C#N)n1 = 51
C#CC1=CC(=O)C(OC)=CC1=O = 34.8

Query: TGI; subject: CCN(CC)CCCC(C)Nc1cc(-c2cccc(OC(F)(F)F)c2)nc2ccc(N3CCCC3)cc12 (stereo unspecified)
14.9

====

# Test system: UACC-62 melanoma
# protocol-description: NCI tumour cell line growth inhibition, 48 h
Listing: TGI of selected molecules

NC(N)=NC1C(O)C(O)C(O)C(N=C(N)N)C1O (stereo unspecified) = > 100 µM
C1CCCCc2nc3c(nc2CCC1)c1nc2c(nc1c1nc4c(nc31)CCCCCCCC4)CCCCCCCC2 = > 100 µM
O=C(O)CCNS(=O)(=O)c1ccc2ccccc2c1 = > 100 µM
C#CC1=CC(=O)C(OC)=CC1=O = 29.2 µM
COc1ccccc1NC(=O)CC(=O)NN = > 100 µM

Now look at this entry.
What value of measured TGI is listed for `CNCCCNc1nc2ccccc2c2c(=O)c3cc(OC)ccc3sc12` ?
3.27 µM

====

# Test system: DLD-1 colon
# protocol-description: NCI tumour cell line growth inhibition, 48 h
Reported TGI values are given for each entry in this list.

Recorded TGI for `O=C(Nc1nn[nH]n1)c1nc(-c2ccccc2)cc(=O)[nH]1` , please?
> 100 µM

What value of TGI has been reported for the following molecule? `Cc1cc(-c2c(F)cc3c4nn([C@H]5CC[C@@H](N(C)C)CC5)c(=O)c-4cn(C4CC4)c3c2F)cc(C)n1`
2.85 µM

====

We begin with a simple list: items and their reported log10 of TGI.
# Test system: MCF7 breast
# protocol-description: NCI tumour cell line growth inhibition, 48 h
Response schema: value (number) is log10 of TGI in units of µM.

Illustrative cases are given below, each with its answer.
O=[N+]([O-])c1ccc(Cl)c(CNc2ncnc3c2ncn3C2CCCCO2)c1 (stereo unspecified) = 1.79
CN(C)CC1CCC(CN(C)C)C(=O)C1=O (stereo unspecified) = 0.93
CN(C)CCCn1c(=O)c2ccccc2c2cnc3[nH]ccc3c21 = 1.05
CC/C(Cc1ccccc1)=C(\c1ccc(OCCN2CCCC2)cc1)c1ccc(OC(=O)NCc2ccccc2)cc1 = 0.33
COc1ccc(/C=C/c2c(C(=O)/C=C/c3ccc(C(F)(F)F)cc3)c(C)nc3ccccc23)cc1 = 0.53

For the next question, use this molecule.
Which measured log10 of TGI value corresponds to `CSc1nc2nc3c(nc2c(=O)n1C)C(=O)c1ccccc1C3=O` ?
-0.42
